molecular target: UniProt:P11802
Sequence (P11802 whole entry): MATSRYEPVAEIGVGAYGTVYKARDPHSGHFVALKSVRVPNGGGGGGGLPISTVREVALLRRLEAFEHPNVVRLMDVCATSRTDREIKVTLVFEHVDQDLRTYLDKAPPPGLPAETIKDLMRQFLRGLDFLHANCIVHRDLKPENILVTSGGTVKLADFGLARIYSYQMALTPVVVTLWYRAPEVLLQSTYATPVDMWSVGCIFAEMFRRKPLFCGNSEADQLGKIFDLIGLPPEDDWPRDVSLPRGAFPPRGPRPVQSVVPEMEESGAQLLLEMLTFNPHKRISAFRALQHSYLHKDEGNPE
metric: log10 IC50 (log10 of the value in nM)
In plain terms, each number is the log10 of measured IC50 in nM.

As a guide, the following entries are already answered.
{"smilesStructure": "CC(C)(C)c1cc2c(N/N=C\\c3ccccn3)ncnc2s1", "targetOfAssay": "UniProt:P11802", "log10 IC50": 3.46}
{"smilesStructure": "CCc1cc2c(N/N=C\\C3CC3)ncnc2s1", "targetOfAssay": "UniProt:P11802", "log10 IC50": 4.11}
{"smilesStructure": "CCc1cc2c(N/N=C\\C(C)(C)C)ncnc2s1", "targetOfAssay": "UniProt:P11802", "log10 IC50": 4.23}
{"smilesStructure": "CC(C)c1cc2c(N/N=C\\c3ccco3)ncnc2s1", "targetOfAssay": "UniProt:P11802", "log10 IC50": 3.13}
{"smilesStructure": "CC(C)c1cc2c(N/N=C\\c3ccccn3)ncnc2s1", "targetOfAssay": "UniProt:P11802", "log10 IC50": 3.47}

Here CN(C)Cc1cccc(/C=N\Nc2ncnc3sc(C(C)(C)C)cc23)n1 was tested on UniProt:P11802, and its log10 IC50 came to 2.18

# lookup: CC(C)c1cc2c(N/N=C\c3ccccc3)ncnc2s1 on UniProt:P11802, log10 IC50 = 3.20

Response field log10 IC50 (UniProt:P11802) for item CCc1cc2c(N/N=C\c3cccs3)ncnc2s1 : 3.41

The molecule CC(C)(C)c1cc2c(N/N=C\c3cccc(CO)n3)ncnc2s1 , when measured on UniProt:P11802, yielded log10 IC50 of 3.01

The reported UniProt:P11802 log10 IC50 of Cc1cc2c(N/N=C\c3cccs3)ncnc2s1 is 3.84

Param item: CC(C)(C)c1cc2c(N/N=C\c3cccc(CN)n3)ncnc2s1 ; param system: UniProt:P11802; output log10 IC50: 3.24

---

system: DLD-1; experiment: Antiproliferative activity against human DLD1 cells by MTT assay; type: functional, cell-based
metric: IC50 (µg/mL)
Numbers only here, please. The scale is µg/mL.

Solved entries:
{"smilesStructure": "CNCc1cccc(/C=N\\Nc2ncnc3sc(C(C)(C)C)cc23)n1", "metric": "IC50", "resultNumber": 0.221}
{"smilesStructure": "CCc1cc2c(N/N=C\\c3cccs3)ncnc2s1", "metric": "IC50", "resultNumber": 1.12}
{"smilesStructure": "CC(C)(C)c1cc2c(N/N=C\\c3ccccn3)ncnc2s1", "metric": "IC50", "resultNumber": 0.037}

Pending compound:
// IC50 value for CN(C)Cc1cccc(/C=N\Nc2ncnc3sc(C(C)(C)C)cc23)n1 : 0.506

---

tested on: HCT-116; test: Antiproliferative activity against human HCT116 cells by dose-response curve analysis; assay type: functional, cell-based
metric: IC50
Output should be the measured figure followed by the unit it is expressed in.

Consider the following illustrative entries.
{"smilesStructure": "Cc1cccc(/C=N\\Nc2ncnc3sc(C(C)(C)C)cc23)n1", "result": "0.268 µg/mL"}
{"smilesStructure": "CNCc1cccc(/C=N\\Nc2ncnc3sc(C(C)(C)C)cc23)n1", "result": "0.185 µg/mL"}
{"smilesStructure": "CC(C)(C)c1cc2c(N/N=C\\c3ccccn3)ncnc2s1", "result": "0.014 µg/mL"}

Per the records, this molecule ( CC(C)(C)c1cc2c(N/N=C\c3cccc(CN)n3)ncnc2s1 ) has IC50 equal to 0.059 µg/mL

// recorded IC50 for Cc1ccc(/C=N\Nc2ncnc3sc(C(C)(C)C)cc23)nc1 : 0.02 µg/mL

IC50 in this record for CCc1cc2c(N/N=C\c3cccs3)ncnc2s1 : 1.61 µg/mL
